In this section, each of the compounds is paired with its reported inhibition at 1.1 µM.
target: HIV-1 protease (Human immunodeficiency virus type 1 group M subtype B, UniProt P04585); experiment: biochemical; settings: read-out: HIV-1 Protease % Inhib, dose 1.100 uM

{"columns": ["COMPOUND", "UNIT NAME", "inhibition at 1.1 µM"],
 "data": [
  ["O=c1oc2c(c(O)c1C(c1cccc(NS(=O)(=O)c3ccccc3C(F)(F)F)c1)C1CC1)CCCCCC2 (centres unmarked)", "%", 83.3],
  ["CCC(c1ccc(C)s1)c1c(O)c2c(oc1=O)CCCCCC2 (centres unmarked)", "%", 62.3],
  ["CCCCCCCCS(=O)(=O)Nc1cccc(C(c2c(O)c3c(oc2=O)CCCCCC3)C2CC2)c1 (centres unmarked)", "%", 91.2],
  ["O=c1oc2c(c(O)c1C(c1ccccc1)C1CC1)CCCCCC2CC1CC1 (centres unmarked)", "%", 99.5],
  ["O=C(Nc1cccc(S(=O)(=O)Nc2cccc(C(c3c(O)c4c(oc3=O)CCCCCC4)C3CC3)c2)c1)c1ccccc1 (centres unmarked)", "%", 76.6],
  ["CS(=O)(=O)Nc1cccc(C(c2c(O)c3c(oc2=O)CCCCCC3)C2CC2)c1 (centres unmarked)", "%", 81.7],
  ["Nc1cccc(S(=O)(=O)Nc2cccc(C(c3c(O)c4c(oc3=O)CCCCCC4)C3CC3)c2)c1 (centres unmarked)", "%", 92.7],
  ["CC(C)CC(c1cccc(NS(=O)(=O)c2cccnc2)c1)c1c(O)c2c(oc1=O)CCCCCC2 (centres unmarked)", "%", 99.9]
]}

###

biological target: HIV-1 protease (Human immunodeficiency virus type 1 group M subtype B); assay: biochemical; settings: read-out: HIV-1 Protease % Inhib, dose 0.410 uM
Output: class label from inhibition at 0.41 µM. Mapping: bin 0 (below 40%), bin 1 (40% to below 80%), bin 2 (80% or more)

{"columns": ["COMPOUND", "ASSIGNED LABEL"],
 "data": [
  ["COc1ccc2c(O)c(C(c3cccc(NC(=O)CCNC(=O)OC(C)(C)C)c3)C3CC3)c(=O)oc2c1 (stereo not drawn) [Example 167]", "bin 2"],
  ["CC(C)(C)C(c1ccccc1)c1c(O)c2ccccc2oc1=O (stereo not drawn) [Example 152]", "bin 0"],
  ["O=c1oc2c(c(O)c1C(C1CC1)C1CC1)CCCCCC2 [Example 118]", "bin 1"],
  ["COc1ccc2c(O)c(C(c3cccc(NC(=O)OCc4ccccc4)c3)C3CC3)c(=O)oc2c1 (stereo not drawn) [Example 166]", "bin 0"],
  ["C=CCCC1CCCCc2c1oc(=O)c(C(c1ccccc1)C1CC1)c2O (stereo not drawn) [Example 135]", "bin 2"],
  ["CCC(c1cccc(NS(=O)(=O)CCNC(=O)OC(C)(C)C)c1)c1c(O)c2ccccc2oc1=O (stereo not drawn) [Example 140]", "bin 0"],
  ["O=c1oc2c(c(O)c1C(c1ccccc1)C1CC1)CCCCC2CC1CC1 (stereo not drawn) [Example 125]", "bin 2"],
  ["CC(C)N=C(Nc1cccc(C(c2c(O)c3c(oc2=O)CCCCCC3)C2CC2)c1)NC(C)C (stereo not drawn) [Example 120]", "bin 0"],
  ["O=C(Nc1cccc(C(c2c(O)c3c(oc2=O)CCCCCC3)C2CC2)c1)OCc1ccccc1 (stereo not drawn) [Example 119]", "bin 0"],
  ["O=c1oc2c(c(O)c1C(C1CC1)C1CC1)CCCCCC2Cc1ccccc1 (stereo not drawn) [Example 123]", "bin 0"],
  ["O=c1oc2ccccc2c(O)c1C(CCO)c1ccccc1 (stereo not drawn) [Example 160]", "bin 0"],
  ["CCC(c1ccccc1)c1c(O)c2c(oc1=O)C(Cc1ccccc1)CCCCC2 (stereo not drawn) [Example 122]", "bin 0"],
  ["O=c1oc2c(c(O)c1C(Cc1ccccc1)Cc1ccccc1)CCCCCC2 [Example 136]", "bin 1"],
  ["CC(C)(C)OC(=O)NCCC(=O)Nc1cccc(C(c2c(O)c3ccccc3oc2=O)C2CC2)c1 (stereo not drawn) [Example 165]", "bin 1"],
  ["O=c1oc2ccccc2c(O)c1C1CCN(Cc2ccccc2)c2ccccc21 (stereo not drawn) [Example 159]", "bin 0"],
  ["CCC(c1ccccc1)c1c(O)c2c(oc1=O)C(CC1CC1)CCC2 (stereo not drawn) [Example 124]", "bin 0"],
  ["CCC(c1ccccc1)c1c(O)c2c(oc1=O)C(C)CCCCC2 (stereo not drawn) [Example 126]", "bin 0"]
]}

###

In this section, each of the compounds is paired with its reported inhibition at 33 µM.
biological target: HIV-1 protease (Human immunodeficiency virus type 1 group M subtype B, UniProt P04585); assay: biochemical; conditions: read-out: HIV-1 Protease % Inhib, dose 33.000 uM

{"columns": ["COMPOUND", "UNIT NAME", "inhibition at 33 µM"],
 "data": [
  ["CC(C)(C)OC(=O)NCCC(=O)Nc1cccc(C(c2c(O)c3ccccc3oc2=O)C2CC2)c1 (centres unmarked) [Example 165]", "%", 111],
  ["O=c1oc2c(c(O)c1C(C1CC1)C1CC1)CCCCCC2Cc1ccccc1 (centres unmarked) [Example 123]", "%", 83.9],
  ["O=c1oc2ccccc2c(O)c1C(CCO)c1ccccc1 (centres unmarked) [Example 160]", "%", 40.4],
  ["COc1ccc2c(O)c(C(c3cccc(NC(=O)OCc4ccccc4)c3)C3CC3)c(=O)oc2c1 (centres unmarked) [Example 166]", "%", 89.1],
  ["O=c1oc2c(c(O)c1C(c1ccccc1)C1CC1)CCCCC2CC1CC1 (centres unmarked) [Example 125]", "%", 102],
  ["CCC(c1cccc(NS(=O)(=O)CCNC(=O)OC(C)(C)C)c1)c1c(O)c2ccccc2oc1=O (centres unmarked) [Example 140]", "%", 91.1],
  ["O=c1oc2c(c(O)c1C(c1ccccc1)C1CC1)CCCCCCC2 (centres unmarked) [Example 117]", "%", 107],
  ["COc1ccc2c(O)c(C(c3cccc(NC(=O)CCNC(=O)OC(C)(C)C)c3)C3CC3)c(=O)oc2c1 (centres unmarked) [Example 167]", "%", 114]
]}

###

In this section, each of the compounds is paired with its reported inhibition at 10 µM.
biological target: HIV-1 protease (Human immunodeficiency virus type 1 group M subtype B); test: biochemical; conditions: dose 10.000 uM; read-out: HIV-1 Protease % Inhib

{"columns": ["COMPOUND", "QUAL", "inhibition at 10 µM, %"],
 "data": [
  ["CC(C)(C)OC(=O)NCC(=O)N(Cc1ccccc1)c1cccc(C(c2c(O)c3c(oc2=O)CCCCCC3)C2CC2)c1 (stereo not shown)", "=", 10.9],
  ["O=c1oc2c(c(O)c1C(c1ccccc1)C1CC1)CCCCCCCCCC2 (stereo not shown)", "<", 10],
  ["CCCCOc1ccc(S(=O)(=O)Nc2cccc(C(c3c(O)c4c(oc3=O)CCCCCC4)C3CC3)c2)cc1 (stereo not shown)", "=", 65.3],
  ["O=c1oc2c(c(O)c1C(c1cccc(NCc3ccccc3)c1)C1CC1)CCCCCC2 (stereo not shown)", "=", 65.3]
]}

###

target: HIV-1 protease (Human immunodeficiency virus type 1 group M subtype B); assay: biochemical; conditions: read-out: HIV-1 Protease % Inhib, dose 0.370 uM
In this section, each of the compounds is paired with its reported inhibition at 0.37 µM.
VALUE KIND: inhibition at 0.37 µM

{"columns": ["COMPOUND", "VALUE KIND", "RESULT"],
 "data": [
  ["CC(C)(C)OC(=O)N[C@@H](Cc1c[nH]cn1)C(=O)Nc1cccc(C(c2c(O)c3c(oc2=O)CCCCCC3)C2CC2)c1 (stereo partly shown)", "inhibition at 0.37 µM", "82.2%"],
  ["CCCC(c1cccc(NS(=O)(=O)c2cccc3cccnc23)c1)c1c(O)c2c(oc1=O)CCCCCC2 (stereo not shown)", "inhibition at 0.37 µM", "104%"],
  ["O=c1oc2c(c(O)c1C(c1ccccc1)C1CC1)CCCCC2CC1CCCO1 (stereo not shown)", "inhibition at 0.37 µM", "37.6%"],
  ["O=C(Nc1cccc(C(c2c(O)c3c(oc2=O)CCCCCC3)C2CC2)c1)c1ccccc1 (stereo not shown)", "inhibition at 0.37 µM", "37.2%"],
  ["O=c1oc2c(c(O)c1C(c1cccc(NS(=O)(=O)c3c(F)c(F)c(F)c(F)c3F)c1)C1CC1)CCCCCC2 (stereo not shown)", "inhibition at 0.37 µM", "78.2%"],
  ["CCC1CCCCCc2c1oc(=O)c(C(c1ccccc1)C1CC1)c2O (stereo not shown)", "inhibition at 0.37 µM", "92.5%"],
  ["O=c1oc2c(c(O)c1C(c1cccc(NS(=O)(=O)c3ccccc3)c1)C1CC1)CCCCCC2 (stereo not shown)", "inhibition at 0.37 µM", "84.2%"],
  ["CC(C)(C)OC(=O)NCCC(=O)Nc1cccc(C(c2c(O)c3c(oc2=O)CCCCC3)C2CC2)c1 (stereo not shown)", "inhibition at 0.37 µM", "54%"],
  ["COCCC1CCCCc2c1oc(=O)c(C(c1ccccc1)C1CC1)c2O (stereo not shown)", "inhibition at 0.37 µM", "39.7%"],
  ["Nc1cccc(C(c2c(O)c3c(oc2=O)CCCCCC3)C2CC2)c1 (stereo not shown)", "inhibition at 0.37 µM", "14.6%"],
  ["O=c1oc2c(c(O)c1C(c1cccc(NS(=O)(=O)c3cc(Cl)cc(Cl)c3)c1)C1CC1)CCCCCC2 (stereo not shown)", "inhibition at 0.37 µM", "79.1%"],
  ["O=C(COCc1ccccc1)Nc1cccc(S(=O)(=O)Nc2cccc(C(c3c(O)c4c(oc3=O)CCCCCC4)C3CC3)c2)c1 (stereo not shown)", "inhibition at 0.37 µM", "70.1%"],
  ["O=c1oc2c(c(O)c1C(c1cccc(NS(=O)(=O)c3ccc(Br)cc3)c1)C1CC1)CCCCCC2 (stereo not shown)", "inhibition at 0.37 µM", "85.2%"],
  ["CC(C)(C)OC(=O)NCC(=O)Nc1cccc(C(c2c(O)c3c(oc2=O)CCCCCC3)C2CC2)c1 (stereo not shown) [Example 200]", "inhibition at 0.37 µM", "88.5%"],
  ["O=c1oc2c(c(O)c1C(c1ccccc1)c1ccccc1)CCCCCC2", "inhibition at 0.37 µM", "118%"],
  ["O=c1oc2c(c(O)c1C(c1cccc(NS(=O)(=O)c3cccc(NO)c3)c1)C1CC1)CCCCCC2 (stereo not shown) [Example 353 (Second Title Compound)]", "inhibition at 0.37 µM", "92.7%"],
  ["O=c1oc2c(c(O)c1C(c1cccc(NS(=O)(=O)c3ccc(F)cc3)c1)C1CC1)CCCCCC2 (stereo not shown)", "inhibition at 0.37 µM", "88%"],
  ["N#Cc1ccc(S(=O)(=O)Nc2cccc(C(c3c(O)c4c(oc3=O)CCCCCC4)C3CC3)c2)cc1 (stereo not shown)", "inhibition at 0.37 µM", "103%"],
  ["CCNC(=O)Nc1cccc(C(c2c(O)c3c(oc2=O)CCCCCC3)C2CC2)c1 (stereo not shown)", "inhibition at 0.37 µM", "31.3%"],
  ["COc1ccc(S(=O)(=O)Nc2cccc(C(c3c(O)c4c(oc3=O)CCCCCC4)C3CC3)c2)cc1 (stereo not shown)", "inhibition at 0.37 µM", "120%"],
  ["O=c1oc2c(c(O)c1C(c1cccc(NS(=O)(=O)c3ccc(-c4ccon4)s3)c1)C1CC1)CCCCCC2 (stereo not shown)", "inhibition at 0.37 µM", "92.2%"],
  ["CC(C)CCC1CCCCCc2c1oc(=O)c(C(c1ccccc1)C1CC1)c2O (stereo not shown)", "inhibition at 0.37 µM", "39.5%"],
  ["CS(=O)(=O)Nc1cccc(C(c2c(O)c3c(oc2=O)CCCCC3)C2CC2)c1 (stereo not shown)", "inhibition at 0.37 µM", "17.2%"],
  ["Cc1c(Cl)cccc1S(=O)(=O)Nc1cccc(C(c2c(O)c3c(oc2=O)CCCCCC3)C2CC2)c1 (stereo not shown)", "inhibition at 0.37 µM", "71.2%"],
  ["Cn1cnc(S(=O)(=O)Nc2cccc([C@@H](c3c(O)c4c(oc3=O)CCCCCC4)C3CC3)c2)c1", "inhibition at 0.37 µM", "86%"],
  ["O=c1oc2c(c(O)c1C(c1ccc(CCO)s1)C1CC1)CCCCCC2 (stereo not shown)", "inhibition at 0.37 µM", "48.5%"],
  ["CCC1CCCCc2c1oc(=O)c(C(c1ccccc1)C1CC1)c2O (stereo not shown)", "inhibition at 0.37 µM", "40.3%"],
  ["CCCCOc1ccc(S(=O)(=O)Nc2cccc(C(c3c(O)c4c(oc3=O)CCCCCC4)C3CC3)c2)cc1 (stereo not shown)", "inhibition at 0.37 µM", "69.4%"],
  ["Cc1cncc(S(=O)(=O)Nc2cccc(C(c3c(O)c4c(oc3=O)CCCCCC4)C3CC3)c2)c1 (stereo not shown)", "inhibition at 0.37 µM", "94.7%"],
  ["CN1CCN(S(=O)(=O)Nc2cccc(C(c3c(O)c4c(oc3=O)CCCCCC4)C3CC3)c2)CC1 (stereo not shown)", "inhibition at 0.37 µM", "21.6%"],
  ["CCC(c1cccc(NS(=O)(=O)c2ccc(Cl)cc2)c1)c1c(O)c2c(oc1=O)CCCCCC2 (stereo not shown)", "inhibition at 0.37 µM", "101%"]
]}
